These entries and their values trace back to ChEMBL document CHEMBL1275352.

Tested on: MDA-MB-435
Method Summary: Cytotoxicity against human MDA-MB-435 cells after 3 days by MTT assay
Format: functional, cell-based
Condition Description: Homo sapiens, MDA-MB-435, 72 h; read-out: IC50
Criterion: IC50 strictly less than 600 nM. Met: TRUE. Not met: FALSE.

Molecule: CCOC(=O)Cn1c2c(c3ccccc31)CCN1C(=O)c3ccccc3N(C)C21 (stereo unspecified)
Class Assignment: FALSE

Molecule: CN1c2ccccc2C(=O)N2CCc3c(n(C(=O)c4cccc(Cl)c4)c4ccccc34)C21 (stereo unspecified)
Class Assignment: TRUE

Molecule: CN1c2ccccc2C(=O)N2CCc3c(n(C(=O)c4ccc([N+](=O)[O-])cc4)c4ccccc34)C21 (stereo unspecified)
Class Assignment: TRUE

Molecule: Cc1ccc(S(=O)(=O)c2cc3c(c4nsnc24)C(=O)c2ccccc2C3=O)cc1
Class Assignment: FALSE

Molecule: CCOC(=O)n1c2c(c3ccccc31)CCN1C(=O)c3ccccc3N(C)C21 (stereo unspecified)
Class Assignment: FALSE

Molecule: CN1c2ccccc2C(=O)N2CCc3c(n(C(=O)c4ccc(F)cc4)c4ccccc34)C21 (stereo unspecified)
Class Assignment: TRUE

Molecule: Cc1ccc(C(=O)n2c3c(c4ccccc42)CCN2C(=O)c4ccccc4N(C)C32)cc1 (stereo unspecified)
Class Assignment: TRUE

Molecule: CCc1c2c(nc3ccc(OC(=O)N4CCC(N5CCCCC5)CC4)cc13)-c1cc3c(c(=O)n1C2)COC(=O)[C@]3(O)CC [IRINOTECAN]
Class Assignment: FALSE

Molecule: CN1c2ccccc2C(=O)N2CCc3c(n(C(=O)c4ccccc4)c4ccccc34)C21 (stereo unspecified)
Class Assignment: TRUE

Molecule: CN1c2ccccc2C(=O)N2CCc3c(n(Cc4ccccc4Cl)c4ccccc34)C21 (stereo unspecified)
Class Assignment: FALSE

Molecule: CN1c2ccccc2C(=O)N2CCc3c(n(C(=O)c4ccc(Cl)cc4)c4ccccc34)C21 (stereo unspecified)
Class Assignment: TRUE

====

// reported IC50 for each item listed
System: A549
Method Summary: Cytotoxicity against human A549 cells after 3 days by MTT assay
Format: functional, cell-based
Condition Description: Homo sapiens, A549, 72 h; read-out: IC50
Readout Name: IC50 (µM)

Compound: CN1c2ccccc2C(=O)N2CCc3c(n(CC#N)c4ccccc34)C21 (configuration not stated)
Readout Name: IC50
Observed Result: 220
//
Compound: CN1c2ccccc2C(=O)N2CCc3c(n(C(=O)c4ccccc4F)c4ccccc34)C21 (configuration not stated)
Readout Name: IC50
Observed Result: 35
//
Compound: CN1c2ccccc2C(=O)N2CCc3c(n(C(=O)c4ccccc4Cl)c4ccccc34)C21 (configuration not stated)
Readout Name: IC50
Observed Result: 14
//
Compound: CN1c2ccccc2C(=O)N2CCc3c(n(C(=O)c4ccccc4)c4ccccc34)C21 (configuration not stated)
Readout Name: IC50
Observed Result: 10
//
Compound: Cc1ccccc1C(=O)n1c2c(c3ccccc31)CCN1C(=O)c3ccccc3N(C)C21 (configuration not stated)
Readout Name: IC50
Observed Result: 4.2
//
Compound: CN1c2ccccc2C(=O)N2CCc3c(n(C(=O)c4ccc([N+](=O)[O-])cc4)c4ccccc34)C21 (configuration not stated)
Readout Name: IC50
Observed Result: 2.8
//
Compound: CN1c2ccccc2C(=O)N2CCc3c(n(Cc4ccccc4Cl)c4ccccc34)C21 (configuration not stated)
Readout Name: IC50
Observed Result: 29
